# Test system: Human mast cells (CHMC)
# assay explanation: LD Tryptase release assay in CHMC (mast cell activation induced by FcγR cross-linking)
# Type: cell-based
# experimental setup: Homo sapiens, Mast cell, anti-IgG stimulation, activity of tryptase released upon degranulation
# Experimental: Compounds were assayed for inhibition of mast cell activation induced by FcγR cross-linking by measuring the activity of tryptase released upon degranulation as follows: Human mast cells were cultured and differentiated from […] progenitor cell as described in U.S. Patent Publication No. 2005-234049, incorporated herein by reference. […]
pIC50: −log10 of the molar value.
measurement name: pIC50

# example entries with known answers
{"compound": "CC1(C)Oc2ccc(Nc3nc(Nc4ccc(N5CCOCC5)c(F)c4)ncc3F)nc2NC1=O [Compound 26]", "pIC50": "> 7.00"}
{"compound": "CCN(CC)C1CCN(c2ccc(Nc3ncc(F)c(Nc4ccc5c(n4)NC(=O)C(C)(C)O5)n3)cc2)CC1 [Compound 88]", "pIC50": "6.30 to 7.00"}

Each compound below has a reported value. Please supply its pIC50.
1. CC1(C)Oc2ccc(Nc3nc(Nc4ccc(N5CCO[C@@H](CF)C5)nc4)ncc3F)nc2NC1=O [Compound 145]
2. CC1(C)Oc2ccc(Nc3nc(Nc4cc(F)c(N5CCOCC5)c(F)c4)ncc3F)nc2NC1=O [Compound 31]
3. COCCN(C)c1ccc(Nc2ncc(F)c(Nc3ccc4c(n3)NC(=O)C(C)(C)O4)n2)cn1 [Compound 99]
4. Cc1cc(Nc2ncc(F)c(Nc3ccc4c(n3)NC(=O)CO4)n2)cnc1N1CCOC(C)(C)C1 [Compound 12]

### Response
["> 7.00", "4.00 to 6.00", "6.30 to 7.00", "> 7.00"]

Respectfully, I request pIC50 for each entry included below.
1. CC1(C)CN(c2ccc(Nc3ncc(F)c(Nc4ccc5c(n4)NC(=O)C(C)(C)O5)n3)cc2)CCO1 [Compound 116]
2. CC1(C)Oc2ccc(Nc3nc(Nc4ccc(N5CCO[C@@H](CO)C5)cc4)ncc3F)nc2NC1=O [Compound 128]
3. CCOC[C@H]1CN(c2ccc(Nc3ncc(F)c(Nc4ccc5c(n4)NC(=O)CO5)n3)cn2)CCO1 [Compound 102]
4. C[C@@H]1COCCN1c1ccc(Nc2ncc(F)c(Nc3ccc4c(n3)NC(=O)CO4)n2)cc1 [Compound 82]
5. O=C1COc2ccc(Nc3nc(Nc4ccc(N5CCO[C@@H](CO)C5)cc4)ncc3F)nc2N1 [Compound 127]
6. CN(C[C@@H]1CCCO1)c1ccc(Nc2ncc(F)c(Nc3ccc4c(n3)NC(=O)C(C)(C)O4)n2)cn1 [Compound 109]

### Response
1. > 7.00
2. > 7.00
3. 6.30 to 7.00
4. 6.30 to 7.00
5. > 7.00
6. 6.30 to 7.00

Kindly give each listed record's pIC50.
1. CN1CCN(c2ccc(Nc3ncc(F)c(Nc4ccc5c(n4)NC(=O)C(C)(C)O5)n3)cn2)CC1 [Compound 18]
2. CC1(C)Oc2ccc(Nc3nc(Nc4ccc(N5C[C@@H]6C[C@H]5CO6)nc4)ncc3F)nc2NC1=O [Compound 92]
3. C=C1COCCN1c1ccc(Nc2ncc(F)c(Nc3ccc4c(n3)NC(=O)C(C)(C)O4)n2)cn1 [Compound 58]

### Response
1: 6.00 to 6.30; 2: > 7.00; 3: 4.00 to 6.00
